The measurements presented in this section are drawn from ChEMBL document CHEMBL3988442.

Measured Percent Effect, listed per entry.
- Species on record: Homo sapiens
- Assay Details: To identify inhibition of the IFN signalling (Jak-Stat) pathway via expression of an eGFP reporter gene under the control of an IFN-stimulated response element (ISRE) containing MxA promoter.
- Assay type: functional
- Set-up: scale not given: direction of the effect not stated beside the values
- Test Context: 30 µM
Property Name: Percent Effect (%)

[[record]]
compound = "NC(=O)c1cc(NC(=O)N2CCCCCC2)ccc1F"
property_name = "Percent Effect"
meas_value = 44.5

[[record]]
compound = "O=C(Cc1cccc(Cl)c1)N[C@@H]1CCNC[C@H]1O"
property_name = "Percent Effect"
meas_value = 0.775

[[record]]
compound = "Cc1cnn(CC2CCCN2c2nn3cc(C)nc3s2)c1 (stereo not drawn)"
property_name = "Percent Effect"
meas_value = 8.17

[[record]]
compound = "Cc1nc(C)n(CC2CCCN(CCCOc3ccccc3)C2)n1 (stereo not drawn)"
property_name = "Percent Effect"
meas_value = -1.23

[[record]]
compound = "CN(C)CCNC(=O)c1ccc(OC2CCN(S(C)(=O)=O)CC2)c(Cl)c1"
property_name = "Percent Effect"
meas_value = -5.52

[[record]]
compound = "CSCCC(=O)N1CCC(Oc2cc(C)ccc2F)(C(=O)O)CC1"
property_name = "Percent Effect"
meas_value = -30.7

[[record]]
compound = "O=C(c1cccnc1O)N(Cc1ccsc1)CC1CCCO1 (stereo not drawn)"
property_name = "Percent Effect"
meas_value = 15.9

[[record]]
compound = "N#Cc1cc(NC(=O)c2ccccc2)ccc1N1CCC(O)CC1"
property_name = "Percent Effect"
meas_value = -5.21

[[record]]
compound = "Cc1csc(N2CCCN(C(=O)C3(C#N)CCCCC3)CC2)n1"
property_name = "Percent Effect"
meas_value = -13.6

[[record]]
compound = "Cc1noc(C2CCN(C(=O)c3c(C)noc3C)CC2)n1"
property_name = "Percent Effect"
meas_value = -25.3

[[record]]
compound = "CC(C)c1nnc2ccc(N3CCC(C(N)=O)CC3)nn12"
property_name = "Percent Effect"
meas_value = -2.58

[[record]]
compound = "CCn1cnnc1CNC(=O)N1CCCN(C(C)=O)CC1"
property_name = "Percent Effect"
meas_value = 1.78

[[record]]
compound = "c1csc(-c2nc(CN3CCOC(Cn4cncn4)C3)co2)c1 (stereo not drawn)"
property_name = "Percent Effect"
meas_value = 9.28

[[record]]
compound = "CC(C)N(C)C(=O)C1=NOC2(CCN(C(=O)c3ccc(Cl)cc3)C2)C1 (stereo not drawn)"
property_name = "Percent Effect"
meas_value = 27.1

[[record]]
compound = "CC(C)N(C)Cc1nnc2n1CCN(Cc1ccncc1)CC2"
property_name = "Percent Effect"
meas_value = 1.94

[[record]]
compound = "CS(=O)(=O)N1CCCCCC1C1CCN(c2ncccn2)CC1 (stereo not drawn)"
property_name = "Percent Effect"
meas_value = 24.7

[[record]]
compound = "CNc1oc(-c2cc(S(=O)(=O)N3CCCCCC3)c(C)o2)nc1C#N"
property_name = "Percent Effect"
meas_value = 8.06

[[record]]
compound = "Cc1cc(N2CCC(N(C)C(=O)Nc3ccccc3)CC2)nc(C)n1"
property_name = "Percent Effect"
meas_value = 6.79

[[record]]
compound = "CCCn1nc(C2CCNCC2)n(Cc2ccccc2)c1=O"
property_name = "Percent Effect"
meas_value = 0.924

[[record]]
compound = "CCN(CC)CCNC(=O)c1cnc(C(C)(C)C)s1"
property_name = "Percent Effect"
meas_value = 0.408

[[record]]
compound = "Cc1cc(CN(C)C(=O)c2cccc(N3CCCC3=O)c2)no1"
property_name = "Percent Effect"
meas_value = 13.3

[[record]]
compound = "CCOCC(O)CN1CCN(C(=O)c2ccc(OC)cc2F)CC1 (stereo not drawn)"
property_name = "Percent Effect"
meas_value = 13.6

[[record]]
compound = "CC(C)(O)CN1CCN(C(=O)c2cc3ccccc3c(=O)[nH]2)CC1"
property_name = "Percent Effect"
meas_value = -8.77

[[record]]
compound = "COc1ncccc1C(=O)NCC1Cc2ccccc2O1 (stereo not drawn)"
property_name = "Percent Effect"
meas_value = -1.66

[[record]]
compound = "O=C(CCc1nccs1)N1CCN(c2cccnn2)CC1"
property_name = "Percent Effect"
meas_value = 13.5

[[record]]
compound = "COCCCn1c(CN2CCCC(O)C2)cnc1S(=O)(=O)C1CCCC1 (stereo not drawn)"
property_name = "Percent Effect"
meas_value = -9.18

[[record]]
compound = "NC(=O)C1CCN(C(=O)NCc2ccccc2Cn2cncn2)CC1"
property_name = "Percent Effect"
meas_value = 1.83

[[record]]
compound = "Cc1oc(C)c(C(=O)NCc2cccnc2N(C)C)c1C"
property_name = "Percent Effect"
meas_value = -12.2

[[record]]
compound = "Cc1nccnc1N1CCC2(CCCN(C3CCOCC3)C2=O)C1 (stereo not drawn)"
property_name = "Percent Effect"
meas_value = 27.4

[[record]]
compound = "CC(C)CNC(=O)[C@H]1CCS(=O)(=O)[C@@H]2CN(Cc3cccc(Cl)c3)C[C@H]12"
property_name = "Percent Effect"
meas_value = 12.5

[[record]]
compound = "FC(F)(F)C1CCCn2c(CNCc3ccsc3)nnc21 (stereo not drawn)"
property_name = "Percent Effect"
meas_value = -14.2

[[record]]
compound = "CCn1cnnc1CNC(=O)c1cc(Cl)ccc1OC"
property_name = "Percent Effect"
meas_value = 7.84

[[record]]
compound = "c1csc(-c2nc(CN3CCOC(Cn4cncn4)C3)cs2)c1 (stereo not drawn)"
property_name = "Percent Effect"
meas_value = -10.6

